- target: human alpha2C receptors (Homo sapiens, UniProt P18825)
- Sequence (P18825 whole entry): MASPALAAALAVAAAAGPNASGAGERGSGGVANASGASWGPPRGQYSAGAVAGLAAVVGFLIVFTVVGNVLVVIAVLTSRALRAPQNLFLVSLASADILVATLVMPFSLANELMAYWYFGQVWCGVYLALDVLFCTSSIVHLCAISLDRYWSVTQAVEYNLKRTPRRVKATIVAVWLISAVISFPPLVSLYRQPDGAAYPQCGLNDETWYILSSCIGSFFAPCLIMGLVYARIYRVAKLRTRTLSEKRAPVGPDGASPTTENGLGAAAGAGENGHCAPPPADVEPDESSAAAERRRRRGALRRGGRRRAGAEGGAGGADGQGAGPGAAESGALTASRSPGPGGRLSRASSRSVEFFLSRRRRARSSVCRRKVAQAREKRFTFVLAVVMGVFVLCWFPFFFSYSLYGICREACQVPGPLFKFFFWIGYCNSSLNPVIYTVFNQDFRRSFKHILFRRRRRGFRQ
- test_name: Determination of alpha2C antagonistic activity in vitro (FLIPR calcium assay, CHO cells)
- run_parameters: antagonism of adrenaline stimulation; CHO cells stably transfected with human alpha2C receptor and Gα16; intracellular calcium (FLIPR); read-out: Alpha 2C Adrenaline IC50
- Description: EXPERIMENT 1: Determination of alpha2A and alpha2C Antagonistic Activity In Vitro […] The growth medium was removed and the cells were incubated with the test compounds and the FLIPR Calcium 6 Assay reagent (Molecular Devices, CA, USA) for 2 h at 37° C. in dark. […] For example, if the number of plates from which results were obtained was three, 72 (4*6*3) wells were thus measured to construct dose-response relationship. […]
Structures can show the parent of a compound that is named as a salt.
Kindly apply the following: label 1 if IC50 is less than 0.1 nM, label 0 in every other case.

A selection of reference data follows.
{"compound": "Cc1nc(N2CCN(C[C@H]3COc4ccccc4O3)CC2)c(N2C(=O)CC(C)(C)C2=O)s1 [Compound of example 32, hydrochloride]", "target": "human alpha2C receptors (Homo sapiens, UniProt P18825)", "class": "label 1"}
{"compound": "Cc1c(N2C(=O)c3ccccc3C2=O)c(N2CCN(C[C@H]3COc4ccccc4O3)CC2)nn1C", "target": "human alpha2C receptors (Homo sapiens, UniProt P18825)", "class": "label 1"}
{"compound": "O=C1CCCN1c1nsnc1N1CCN(C[C@H]2COc3ccccc3O2)CC1", "target": "human alpha2C receptors (Homo sapiens, UniProt P18825)", "class": "label 1"}
{"compound": "CC1(C)CCN(c2nsnc2N2CCN(C[C@H]3COc4ccccc4O3)CC2)C1=O", "target": "human alpha2C receptors (Homo sapiens, UniProt P18825)", "class": "label 1"}
{"compound": "COc1cccc(-n2nc(C)cc2N2CCN(C[C@H]3COc4ccccc4O3)CC2)n1", "target": "human alpha2C receptors (Homo sapiens, UniProt P18825)", "class": "label 1"}

Is IC50 of c1cnc(Nc2nsnc2N2CCN(C[C@H]3COc4ccccc4O3)CC2)nc1 strictly below 0.1 nM?
label 0

Is IC50 of COCc1scnc1N1CCN(C[C@H]2COc3ccccc3O2)CC1 strictly below 0.1 nM?
label 1

Is IC50 of Cc1c(N2C(=O)CC(C)(C)C2=O)c(N2CCN(C[C@H]3COc4ccccc4O3)CC2)nn1C strictly below 0.1 nM?
label 1

Is IC50 of c1ccc(-n2nccc2N2CCN(C[C@H]3COc4ccccc4O3)CC2)nc1 strictly below 0.1 nM?
label 0

Is IC50 of c1ccc(COc2ncccc2Nc2nsnc2N2CCN(C[C@H]3COc4ccccc4O3)CC2)cc1 [Compound of example 37, hydrochloride] strictly below 0.1 nM?
label 0

Is IC50 of Cc1nc(C#N)c(N2CCN(C[C@H]3COc4ccccc4O3)CC2)o1 strictly below 0.1 nM?
label 0

Is IC50 of CN1CCN(c2nsnc2N2CCN(C[C@H]3COc4ccccc4O3)CC2)C1=O strictly below 0.1 nM?
label 0
